Values compiled from ChEMBL document CHEMBL1151633.

- Tested on: Patiria pectinifera
- Assay Protocol: Inhibition of actin polymerization in starfish during embryogenesis
Calls of active or inactive are those of the source. The calls are words filed in the database; no cut-off is given here.
Measurement Label: Activity

CC(C)CC(=O)C[C@@](C)(O)[C@H]1CC[C@H]2[C@@H]3C[C@H](OC4O[C@H](CO)[C@@H](O)[C@H](OC5O[C@H](C)[C@@H](OC6O[C@H](C)[C@@H](O)[C@H](O)[C@H]6OC6O[C@H](C)[C@H](O)[C@H](O)[C@H]6O)[C@H](O)[C@H]5OC5O[C@H](C)[C@@H](O)[C@H](O)[C@H]5O)[C@H]4O)[C@H]4C[C@@H](OS(=O)(=O)[O-])CC[C@]4(C)C3=CC[C@@]21C.[Na+] (stereo partly drawn) :: Active
CC(C)=CC(=O)C[C@@](C)(O)[C@H]1CC[C@H]2[C@@H]3C[C@H](OC4O[C@H](C)[C@@H](O)[C@H](OC5OC[C@@H](OC6O[C@H](CO)[C@H](O)[C@H](O)[C@H]6OC6O[C@H](C)[C@H](O)[C@H](O)[C@H]6O)[C@H](O)[C@H]5OC5O[C@H](C)[C@@H](O)[C@H](O)[C@H]5O)[C@H]4O)[C@H]4C[C@@H](OS(=O)(=O)[O-])CC[C@]4(C)C3=CC[C@@]21C.[Na+] (stereo partly drawn) :: Active
CC(C)CC(=O)C[C@@](C)(O)[C@H]1CC[C@H]2[C@@H]3C[C@H](OC4O[C@H](C)[C@@H](O)[C@H](OC5OC[C@@H](OC6O[C@H](CO)[C@H](O)[C@H](O)[C@H]6OC6O[C@H](C)[C@H](O)[C@H](OC7O[C@H](CO)[C@H](O)[C@H](O)[C@H]7O)[C@H]6O)[C@H](O)[C@H]5OC5O[C@H](C)[C@@H](O)[C@H](O)[C@H]5O)[C@H]4O)[C@H]4C[C@@H](OS(=O)(=O)[O-])CC[C@]4(C)C3=CC[C@@]21C.[Na+] (stereo partly drawn) :: Active
